Molecular target: Solute carrier organic anion transporter family member 1B1 (Homo sapiens, UniProt Q9Y6L6)
Sequence (Q9Y6L6 whole entry): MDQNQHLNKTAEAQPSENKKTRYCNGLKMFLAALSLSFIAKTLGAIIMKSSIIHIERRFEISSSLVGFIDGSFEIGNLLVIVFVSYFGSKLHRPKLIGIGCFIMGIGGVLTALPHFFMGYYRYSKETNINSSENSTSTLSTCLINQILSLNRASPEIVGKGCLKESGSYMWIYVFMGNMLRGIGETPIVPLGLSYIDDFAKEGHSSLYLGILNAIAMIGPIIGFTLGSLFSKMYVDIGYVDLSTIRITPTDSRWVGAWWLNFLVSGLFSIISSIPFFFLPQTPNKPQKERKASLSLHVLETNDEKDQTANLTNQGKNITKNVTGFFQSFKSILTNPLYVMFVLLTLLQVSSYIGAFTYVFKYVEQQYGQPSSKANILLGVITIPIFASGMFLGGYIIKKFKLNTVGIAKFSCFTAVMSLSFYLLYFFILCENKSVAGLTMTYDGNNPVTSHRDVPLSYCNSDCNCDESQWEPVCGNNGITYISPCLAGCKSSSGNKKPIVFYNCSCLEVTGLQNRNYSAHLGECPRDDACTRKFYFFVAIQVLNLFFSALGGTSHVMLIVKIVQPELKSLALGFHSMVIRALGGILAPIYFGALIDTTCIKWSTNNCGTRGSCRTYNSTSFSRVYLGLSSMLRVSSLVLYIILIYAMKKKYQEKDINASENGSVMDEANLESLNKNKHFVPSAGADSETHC
Conditions: chinese hamster, cho, 10 µM
Readout name: residual activity (%)
Just the number please, in %, no unit attached.

Known residual activity results, listed for orientation:
{"Molecule": "COc1cc2c(cc1OC)[C@@H]1C(=O)c3ccc4oc(C(C)C)cc4c3O[C@@H]1CO2", "Recorded number": 78.62}
{"Molecule": "O=C(CC(=O)c1ccccc1)c1ccccc1", "Recorded number": 129.7}
{"Molecule": "CO[C@H]1C[C@H](O[C@H]2[C@H](C)[C@@H](O[C@@H]3O[C@H](C)C[C@H](N(C)C)[C@H]3O)[C@@H](C)C[C@@]3(CO3)C(=O)[C@H](C)[C@@H](O)[C@@H](C)[C@@H](C)OC(=O)[C@@H]2C)O[C@@H](C)[C@@H]1O.O=P(O)(O)O [OLEANDOMYCIN PHOSPHATE]", "Recorded number": 102.8}

Query block: Reported residual activity for CC(=O)NC(Cc1ccccc1)C(=O)O (stereo not given) : what is it?
Result block: 114.2

Query block: Tell me the measured residual activity of `COC1=C[C@]23CCCN2CCc2cc4c(cc2[C@@H]3[C@@H]1O)OCO4` , please.
Result block: 77.26
